Recorded pIC50 values (EphB4 (Homo sapiens (Human), UniProt P54760)) are given below.
pIC50: −log10 of the molar value.
parameter-measured: pIC50

{"molecule": "COc1cc2c(Nc3ccc(Cl)c(Cl)c3)ncnc2cc1O[C@H]1CO[C@H]2[C@@H]1OC[C@@H]2OC [Example 72]", "tgt": "EphB4 (Homo sapiens (Human), UniProt P54760)", "result": "6.00 to 7.30"}
{"molecule": "COc1cc2c(Nc3cccc(Cl)c3)ncnc2cc1O[C@@H]1CO[C@@H]2[C@H]1OC[C@H]2F [Example 114]", "tgt": "EphB4 (Homo sapiens (Human), UniProt P54760)", "result": "> 7.30"}
{"molecule": "COc1cc2c(Nc3ccc(Cl)c(Cl)c3)ncnc2cc1OCc1cscn1 [Example 170]", "tgt": "EphB4 (Homo sapiens (Human), UniProt P54760)", "result": "> 7.30"}
{"molecule": "COc1cc2c(Nc3ccc(Cl)c(Cl)c3)ncnc2cc1OCC(=O)N1CCOCC1 [Example 195]", "tgt": "EphB4 (Homo sapiens (Human), UniProt P54760)", "result": "6.00 to 7.30"}
{"molecule": "CCN1CCCC(c2nc(COc3cc4ncnc(Nc5ccc(Cl)c(Cl)c5)c4cc3OC)no2)C1 (stereo not shown) [Example 239]", "tgt": "EphB4 (Homo sapiens (Human), UniProt P54760)", "result": "6.00 to 7.30"}
{"molecule": "CCN1CCCC1c1nc(COc2cc3ncnc(Nc4ccc(Cl)c(Cl)c4)c3cc2OC)no1 (stereo not shown) [Example 264]", "tgt": "EphB4 (Homo sapiens (Human), UniProt P54760)", "result": "6.00 to 7.30"}
{"molecule": "COc1cc2c(Nc3ccc(Cl)c(Cl)c3)ncnc2cc1OCC1CN(C(C)C)CCCO1 (stereo not shown) [Example 261]", "tgt": "EphB4 (Homo sapiens (Human), UniProt P54760)", "result": "6.00 to 7.30"}
{"molecule": "CCN1CCC(c2nc(COc3cc4ncnc(Nc5ccc(Cl)c(Cl)c5)c4cc3OC)cs2)CC1 [Example 242]", "tgt": "EphB4 (Homo sapiens (Human), UniProt P54760)", "result": "> 7.30"}
{"molecule": "COc1cc2c(Nc3ccc(F)c(F)c3F)ncnc2cc1O[C@@H]1CO[C@@H]2[C@H]1OC[C@H]2F [Example 84]", "tgt": "EphB4 (Homo sapiens (Human), UniProt P54760)", "result": "> 7.30"}
{"molecule": "COc1cc2c(Nc3ccc(Cl)c(Cl)c3)ncnc2cc1OCc1nccn1Cc1ccccc1 [Example 229]", "tgt": "EphB4 (Homo sapiens (Human), UniProt P54760)", "result": "6.00 to 7.30"}
{"molecule": "COc1cc2c(Nc3ccc(Cl)c(Cl)c3)ncnc2cc1OCc1noc(C2CCCNC2)n1 (stereo not shown) [Example 153]", "tgt": "EphB4 (Homo sapiens (Human), UniProt P54760)", "result": "6.00 to 7.30"}
{"molecule": "CCN1CCOC(COc2cc3ncnc(Nc4ccc(Cl)c(Cl)c4)c3cc2OC)C1 (stereo not shown) [Example 212]", "tgt": "EphB4 (Homo sapiens (Human), UniProt P54760)", "result": "6.00 to 7.30"}
{"molecule": "COc1cc(OC)c(Nc2ncnc3cc(O[C@@H]4CO[C@@H]5[C@H]4OC[C@H]5F)c(OC)cc23)cc1Cl [Example 135]", "tgt": "EphB4 (Homo sapiens (Human), UniProt P54760)", "result": "> 7.30"}
{"molecule": "COc1cc2c(Nc3ccc(Cl)c(Cl)c3)ncnc2cc1OCc1noc(-c2ccccc2OC)n1 [Example 227]", "tgt": "EphB4 (Homo sapiens (Human), UniProt P54760)", "result": "> 7.30"}
{"molecule": "COc1cc2c(Nc3ccc(Cl)c(Cl)c3)ncnc2cc1OCc1csc(-c2ccc(Cl)cc2)n1 [Example 223]", "tgt": "EphB4 (Homo sapiens (Human), UniProt P54760)", "result": "6.00 to 7.30"}
{"molecule": "CCN1CCCCC1c1nc(COc2cc3ncnc(Nc4ccc(Cl)c(Cl)c4)c3cc2OC)no1 (stereo not shown) [Example 219]", "tgt": "EphB4 (Homo sapiens (Human), UniProt P54760)", "result": "6.00 to 7.30"}
